Where do the numbers come from? From ChEMBL document CHEMBL1133173.

Experimental system: Integrin alpha-V/beta-3 (Homo sapiens, UniProt P05106+P06756)
Sequence (P05106 27-788 limits assumed): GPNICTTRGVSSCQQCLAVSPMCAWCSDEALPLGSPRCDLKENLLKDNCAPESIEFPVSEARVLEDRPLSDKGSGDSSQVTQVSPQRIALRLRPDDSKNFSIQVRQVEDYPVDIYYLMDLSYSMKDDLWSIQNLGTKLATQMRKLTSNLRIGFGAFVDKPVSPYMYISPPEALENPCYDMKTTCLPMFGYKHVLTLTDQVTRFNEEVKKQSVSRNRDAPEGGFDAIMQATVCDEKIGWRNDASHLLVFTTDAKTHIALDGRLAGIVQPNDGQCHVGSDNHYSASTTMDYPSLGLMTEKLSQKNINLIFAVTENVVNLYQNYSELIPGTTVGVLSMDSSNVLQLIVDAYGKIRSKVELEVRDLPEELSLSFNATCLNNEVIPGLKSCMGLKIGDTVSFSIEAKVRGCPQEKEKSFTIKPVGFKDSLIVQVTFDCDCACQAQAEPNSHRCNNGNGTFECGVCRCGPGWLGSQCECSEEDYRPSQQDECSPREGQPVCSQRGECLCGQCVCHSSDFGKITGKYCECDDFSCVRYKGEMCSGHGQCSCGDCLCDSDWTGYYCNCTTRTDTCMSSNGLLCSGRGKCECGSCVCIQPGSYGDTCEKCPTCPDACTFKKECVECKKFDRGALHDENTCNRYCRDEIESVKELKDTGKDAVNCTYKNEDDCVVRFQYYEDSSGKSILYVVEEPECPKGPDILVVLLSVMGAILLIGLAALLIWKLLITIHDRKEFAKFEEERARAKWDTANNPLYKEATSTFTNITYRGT
Sequence (P06756 31-889 limits assumed): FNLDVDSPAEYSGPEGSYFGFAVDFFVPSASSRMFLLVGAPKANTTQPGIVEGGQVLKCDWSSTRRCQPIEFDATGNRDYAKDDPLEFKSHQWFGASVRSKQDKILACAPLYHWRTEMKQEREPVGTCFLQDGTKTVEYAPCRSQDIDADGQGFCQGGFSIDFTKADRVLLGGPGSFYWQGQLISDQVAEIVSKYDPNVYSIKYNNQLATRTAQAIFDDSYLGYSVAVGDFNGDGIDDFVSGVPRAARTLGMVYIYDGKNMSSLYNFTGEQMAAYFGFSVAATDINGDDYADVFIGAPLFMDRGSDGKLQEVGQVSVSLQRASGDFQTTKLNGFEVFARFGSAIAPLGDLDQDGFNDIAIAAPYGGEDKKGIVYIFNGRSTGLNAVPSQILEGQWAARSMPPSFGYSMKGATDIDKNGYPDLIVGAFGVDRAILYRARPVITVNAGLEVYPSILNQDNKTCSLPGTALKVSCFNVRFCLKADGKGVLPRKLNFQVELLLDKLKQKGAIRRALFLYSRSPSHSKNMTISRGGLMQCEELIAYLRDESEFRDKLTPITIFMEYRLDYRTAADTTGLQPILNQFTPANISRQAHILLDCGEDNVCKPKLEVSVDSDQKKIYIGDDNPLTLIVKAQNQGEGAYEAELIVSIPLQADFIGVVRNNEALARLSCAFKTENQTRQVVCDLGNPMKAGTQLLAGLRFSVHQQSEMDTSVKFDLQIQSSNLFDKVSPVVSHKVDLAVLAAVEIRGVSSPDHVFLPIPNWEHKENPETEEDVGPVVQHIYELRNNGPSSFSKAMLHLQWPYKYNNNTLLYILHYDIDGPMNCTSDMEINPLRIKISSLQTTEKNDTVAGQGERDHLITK
Sequence (P06756 891-1048 limits assumed): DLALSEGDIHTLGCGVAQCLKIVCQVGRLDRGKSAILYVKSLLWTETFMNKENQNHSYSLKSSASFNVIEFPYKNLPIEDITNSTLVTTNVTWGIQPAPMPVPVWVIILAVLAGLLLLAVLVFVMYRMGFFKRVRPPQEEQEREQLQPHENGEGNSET
Measurement notes: Inhibition of vitronectin receptor (alpha V beta 3), expressed on human 293 cells, binding to immobilized fibrinogen
Property measured: IC50

N[C@@H](CNC(=O)C1=NOC(CCCCNc2ncc[nH]2)C1)C(=O)O (stereo partly drawn)    > 1000 nM

So what does the record say about IC50 for Cc1cc(C)c(S(=O)(=O)N[C@@H](CNC(=O)C2=NOC(CCCCNc3cc4ccccc4cn3)C2)C(=O)O)c(C)c1 (stereo partly drawn) ?
> 1000 nM

Note, next up: Cc1cc(C)c(S(=O)(=O)N[C@@H](CNC(=O)C2=NOC(CCCCNS(N)(=O)=O)C2)C(=O)O)c(C)c1 (stereo partly drawn)
> 1000 nM
